Reference source: ChEMBL document CHEMBL1201862

Reported GI50 values are given for each entry in this list.
Tested on: ACHN
Assay: NCI tumour cell line growth inhibition, 48 h
The source made the active and inactive calls. No stated cut-off is given here; in the data, active = GI50 up to about 1.1 µM and inactive = higher.
property label: GI50

CC1(C)N=c2[nH]cnc2=C(C(N)=O)N1 : > 100 µM (inactive)
Nc1cc2[nH]cnc2c(=O)[nH]1 : 8.87 µM (inactive)
CCOC(=O)NN(C(=O)OCC)C(=C(C1=CCCCC1)N1CCOCC1)N(NC(=O)OCC)C(=O)OCC : > 100 µM (inactive)
N#C/C(=C\c1c(Cl)cccc1Cl)c1ccccc1 : 7.59 µM (inactive)
COc1cc(/C=C2\CCC/C(=C\c3ccc(O)c(OC)c3)C2=O)ccc1O : 2.06 µM (inactive)
c1ccc(NC2(c3nnnn3C3CCCCC3)CCNCC2)cc1 : 20.1 µM (inactive)
Cc1ccc(C2SCC(=O)N2c2ccc(-c3ccc(-n4c(-c5ccccc5)nc5ccccc5c4=O)cc3)cc2)cc1 (stereo not given) : > 100 µM (inactive)
Oc1ccc(Cl)cc1C1=NC(NCNC2=NC(c3ccccc3)CC(c3cc(Cl)ccc3O)=N2)=NC(c2ccccc2)C1 (stereo not given) : 43.6 µM (inactive)
CCOC(=O)C(=O)Nc1cccc(C)c1C : > 100 µM (inactive)
CCc1n[nH]c(=O)n1-n1c(C)ccc1C : > 100 µM (inactive)

---

Tested on: Hs-578T
Test: NCI tumour cell line growth inhibition, 48 h
The source made the active and inactive calls. Rule as the data show it: active = GI50 up to about 1.1 µM and inactive = higher.
property label: GI50

CC1(C)OCC(C2CCC3(C)C4=CCC5C(C)(C)C(O)CCC5(C)C4CCC23C)CC(O)C1O (configuration not stated) : 19.9 µM (inactive)
CCCSc1cc(Cl)c(C)cc1S(=O)(=O)n1ccnc1O : > 100 µM (inactive)
CC(=O)OC(CN1CCN(c2ccccn2)CC1)Cn1sc2nc(C)cc(C)c2c1=O (configuration not stated) : 20.7 µM (inactive)
c1ccc2c(c1)SC1=C(SC(=C3SC4=C(S3)Sc3ccccc3S4)S1)S2 : 23.3 µM (inactive)
Cc1cc2oc3c(ccc(=O)n3C)c(=O)c2c(C)c1Cl : 32 µM (inactive)
CCOC(=O)c1cc(C)n(CN(CCO)Cn2nc(C(=O)OCC)cc2C)n1 : 97.7 µM (inactive)
N=C(N)Nc1ccc(CC(N)C(=O)NCC(=O)C(CC(=O)O)c2ncc(NC(=O)C(F)(F)F)o2)cc1 (configuration not stated) : > 25 µM (inactive)
NCCN(CCN(C(=O)Nc1ccccc1)c1ccccc1)C(=O)Nc1ccccc1 : 19.2 µM (inactive)
O=C1NC(c2ccc3ccccc3c2)Nc2ccccc21 (configuration not stated) : 57.4 µM (inactive)
CCOc1c(/N=N/c2ccccc2Cl)c(-c2ccccc2)nn1C(=S)S : 22.2 µM (inactive)
CC(C)(C)C(=O)Nc1cccc(-c2ccc[nH]2)n1 : 22.7 µM (inactive)
COC(=O)c1ccccc1C1CN=NC12Cc1cc(C)c(C)cc1C2=O (configuration not stated) : 45.5 µM (inactive)
NC1=NCN(C2OC(CO)C(O)C2O)C(=O)N1 (configuration not stated) : 23.4 µM (inactive)
NCCOc1ccccn1 : > 100 µM (inactive)
CCCCC1=CC1(C#N)[N+](=O)[O-] (configuration not stated) : > 100 µM (inactive)
COc1cc2c(c3oc4c(O)cccc4c(=O)c13)CC(C(C)(O)CO)O2 (configuration not stated) : 44.3 µM (inactive)
O=C(O)/C(=C\c1ccncc1)c1cccc2ccccc12 : > 100 µM (inactive)
CC/C=C/c1cc2c(cc1O)CCC1C2CC[C@@]2(C)C1CC[C@@H]2O (some centres not stated) : 1.65 µM (inactive)
Cc1cc2cc3c(Cl)c(CCCl)c(C)nc3cc2c(Cl)c1CCCl : 9.84 µM (inactive)
Clc1sc(Cl)c2c1[C@@H](Cl)C[C@@H]2Cl : 38.1 µM (inactive)
NC1CCN(c2nc3ccccc3c3c2CCCC3)CC1 : 20.5 µM (inactive)
CCN1C[C@]2(COC)[C@H](O)C[C@H](OC)[C@]34C1[C@H]([C@H](OC)[C@H]23)[C@]1(OC(C)=O)[C@H]2[C@@H](OC(=O)c3ccccc3)[C@](O)(C[C@H]24)[C@@H](OC)[C@@H]1O : > 100 µM (inactive)

---

System: SN12C
Assay: NCI tumour cell line growth inhibition, 48 h
The source made the active and inactive calls. Cut-off read from the data, not from the text of the source: active = GI50 up to about 1.1 µM and inactive = higher.
Labels: yes (active), no (inactive)

O=C(CCc1cc(O)cc(O)c1)NCCc1cc(O)cc(OCc2ccccc2)c1 : no
COc1cc(C(C)(C)C)c(OC(=O)/C=C/C(=O)O/C=C/[N+](=O)[O-])c(C(C)(C)C)c1 : no
CC(=O)N(C(C)=O)n1nc2c(n1)C(=O)c1ccccc1C2=O : no
COc1ccc2c(c1OCC(=O)O)C(=O)C(CCC(=O)O)CC2 (configuration not stated) : no
Nc1ccc(C(=O)NN2C(=O)C(Cl)C2c2cc(Br)ccc2O)cc1 (configuration not stated) : no
c1nc2cscc2c2cscc12 : no
O=C(O)c1cnc2[nH]ccn2c1=O : no
COC(=O)[C@@]1(C)/C(=N/NS(=O)(=O)c2ccc(C)cc2)CCC[C@@H]1C : no
COC(=O)Cc1c([C@@H]2Nc3ccccc3[C@H]2CC(=O)OC)[nH]c2ccccc12 : no
C=COCCCOc1ccccc1 : no
O=C(CCCn1ccnc1[N+](=O)[O-])NCCn1cnc([N+](=O)[O-])c1 : no
Cc1c2ccnc(C(=O)NCCN(C)C)c2cc2c3cc(O)ccc3n(C)c12 : yes
COc1ccc2nc(NC(=O)C(=O)C(C#N)c3ccc([N+](=O)[O-])cc3)sc2c1 (configuration not stated) : no
Cn1c(-c2ccc(-c3cc(-c4cccs4)c(-c4cccs4)n3C)cc2)cc(-c2cccs2)c1-c1cccs1 : no
C=C(c1ccccc1)C1(O)CCCCC1N (configuration not stated) : no
CC(=O)Nc1ccc(C(=O)N2N=C(C)/C(=C/c3ccccc3O)C2=O)cc1 : no
Cc1ccc(S(=O)(=O)n2cncc2CO)cc1 : no
Clc1ccc2c(NCCCCCCNc3ccnc4cc(Cl)ccc34)ccnc2c1 : no
CSCCOC(=O)C(=[N+]=[N-])c1ccc([N+](=O)[O-])cc1 : no
O=c1c2c(nc3n1CCC3)sc1c(O)c(Br)ccc12 : no
NC(=O)NC(=O)c1cccc(NC(=O)CF)c1 : no
c1ccc([P+](Cc2ccc(C[P+](c3ccccc3)(c3ccccc3)c3ccccc3)s2)(c2ccccc2)c2ccccc2)cc1 : no

---

Reported GI50 values are given for each entry in this list.
Test system: SNB-78
Experiment: NCI tumour cell line growth inhibition, 48 h
Calls of active or inactive are those of the source. No stated cut-off is given here; in the data, active = GI50 up to about 1.1 µM and inactive = higher.
property label: GI50

COc1cc(OC)c(/C=C2\N=C(C)N(Nc3nnc(NN4C(=O)/C(=C/c5c(OC)cc(OC)cc5OC)N=C4C)c4ccccc34)C2=O)c(OC)c1 : > 100 µM (inactive)
CCCCCCCCC(=O)NCCN(CCN)C(=O)CCCCCCCC : 10.4 µM (inactive)
CCCCCCCCCCCOc1ccc(C(=O)C(=O)c2ccc(OCCCCCCCCCCC)c(OCCCCCCCCCCC)c2)cc1OCCCCCCCCCCC : > 100 µM (inactive)
Cn1cc2ccccc2c1-c1nc(F)nc(Oc2ccc3c(c2)CC[C@@H]2C3CC[C@]3(C)C(O)CCC23)n1 (some centres undefined) : 12.2 µM (inactive)
COC(=O)[C@@]1(C)/C(=N/NS(=O)(=O)c2ccc(C)cc2)CCC[C@@H]1C : > 100 µM (inactive)
NCCn1cnc2nc(NC(=O)c3ccccc3)[nH]c(=O)c21 : > 100 µM (inactive)
CCCn1cc2c3c(cccc31)C1C=C(C)CN(C)C1C2 (centres undefined) : 30.3 µM (inactive)
CN1C(=O)CC2(C)c3cc(O)ccc3N(C)C12 (centres undefined) : > 67.3 µM (inactive)
CCCC[C@H](CCc1ccccc1)N(C(=O)OC)N1CCC[C@H]1COC : 21.3 µM (inactive)

---

Tested on: OVCAR-5
Assay: NCI tumour cell line growth inhibition, 48 h
The source made the active and inactive calls. No stated cut-off is given here; in the data, active = GI50 up to about 1.1 µM and inactive = higher.
property label: GI50

[O-][N+]1=C(c2ccccc2)COc2ccccc21 : > 100 µM (inactive)
Cc1cc(C)nc(NS(=O)(=O)c2ccc(Nc3nnc(/C=C/c4c(O)ccc5ccccc45)c(=O)n3N)cc2)n1 : 39.3 µM (inactive)
Nc1ccc(C(=O)CC2(O)C(=O)Nc3c(Cl)cc(Cl)cc32)cc1 (stereo not given) : > 100 µM (inactive)
CCN(CC)c1oc(N(CC)CC)c(C(=O)Nc2ccccn2)c(=O)c1C(C)=O : > 100 µM (inactive)
COc1ccc(OC/C(N)=N/NC(=O)c2ccncc2)cc1 : > 100 µM (inactive)
COC(=O)/C=C/C(=O)C1C(C(=O)OC)C2(C(=O)OC)CCC1(C(=O)OC)N2 (stereo not given) : > 100 µM (inactive)
c1ccc(C[n+]2cccc(-c3cc4ccccc4[nH]3)c2)cc1 : 42.7 µM (inactive)
Cc1ccc(S(=O)(=O)n2cncc2CO)cc1 : > 100 µM (inactive)
COC[C@@H](Cc1ccc(OC)c(OC)c1)[C@@H](COC)Cc1ccc(OC)c(OC)c1 : > 100 µM (inactive)
O=C(CCCn1ccnc1[N+](=O)[O-])NCCn1cnc([N+](=O)[O-])c1 : > 100 µM (inactive)
O=C(/C=C/c1ccc(O)c(O)c1)OCCCOC(=O)/C=C/c1ccc(O)c(O)c1 : 27.4 µM (inactive)
COC(=O)Nc1nc2cc(NS(=O)(=O)c3ccc(Cl)cc3)ccc2[nH]1 : 17.9 µM (inactive)
CCc1nc(N)nc(C(=O)NCCNC(=O)c2nc(N)nc(CC)c2C)c1C : > 100 µM (inactive)
NC(=S)N/N=C1/CCCC2CCCC[C@@H]12 (stereo not given in full) : > 100 µM (inactive)
COC1(CC[C@H](C)COC2OC(CO)C(O)C(O)C2O)O[C@H]2C[C@H]3[C@@H]4CC=C5C[C@@H](OC6OC(CO)C(OC7OC(C)C(O)C(O)C7O)C(O)C6OC6OC(C)C(O)C(O)C6O)CC[C@]5(C)[C@H]4CC[C@]3(C)[C@H]2[C@@H]1C (stereo not given in full) : 4.2 µM (inactive)
CC(=O)OC1CCC2OOC1O2 (stereo not given) : > 100 µM (inactive)
CC(=O)/N=C1/N(/C=C2\C(=O)Oc3ccccc3C2=O)C(=O)/C(=C/c2ccc(NC(C)=O)cc2)N1C : > 100 µM (inactive)
CCc1n[nH]c(=O)n1-n1c(C)ccc1C : > 100 µM (inactive)
CCOc1cc2ccc3c4cc(OC)c(OC)cc4cnc3c2cc1OCC : > 100 µM (inactive)
CO/[N+]([O-])=C\C(=O)N/C=C/C(=O)O : > 100 µM (inactive)
